Reference source: patent US8778951B2

measurement_target: Cdk9/cyclinT1 (Homo sapiens (Human))
Sequence (P50750 whole entry): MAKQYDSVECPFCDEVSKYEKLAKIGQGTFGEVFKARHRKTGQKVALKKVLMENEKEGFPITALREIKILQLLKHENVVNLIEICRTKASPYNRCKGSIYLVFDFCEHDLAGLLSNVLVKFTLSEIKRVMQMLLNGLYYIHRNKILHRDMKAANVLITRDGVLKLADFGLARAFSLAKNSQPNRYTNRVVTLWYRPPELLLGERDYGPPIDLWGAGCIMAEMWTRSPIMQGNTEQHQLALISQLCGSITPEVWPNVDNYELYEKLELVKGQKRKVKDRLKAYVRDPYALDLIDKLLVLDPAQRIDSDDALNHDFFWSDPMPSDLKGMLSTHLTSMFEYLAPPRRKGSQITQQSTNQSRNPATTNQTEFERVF
Sequence (O60563 whole entry partner): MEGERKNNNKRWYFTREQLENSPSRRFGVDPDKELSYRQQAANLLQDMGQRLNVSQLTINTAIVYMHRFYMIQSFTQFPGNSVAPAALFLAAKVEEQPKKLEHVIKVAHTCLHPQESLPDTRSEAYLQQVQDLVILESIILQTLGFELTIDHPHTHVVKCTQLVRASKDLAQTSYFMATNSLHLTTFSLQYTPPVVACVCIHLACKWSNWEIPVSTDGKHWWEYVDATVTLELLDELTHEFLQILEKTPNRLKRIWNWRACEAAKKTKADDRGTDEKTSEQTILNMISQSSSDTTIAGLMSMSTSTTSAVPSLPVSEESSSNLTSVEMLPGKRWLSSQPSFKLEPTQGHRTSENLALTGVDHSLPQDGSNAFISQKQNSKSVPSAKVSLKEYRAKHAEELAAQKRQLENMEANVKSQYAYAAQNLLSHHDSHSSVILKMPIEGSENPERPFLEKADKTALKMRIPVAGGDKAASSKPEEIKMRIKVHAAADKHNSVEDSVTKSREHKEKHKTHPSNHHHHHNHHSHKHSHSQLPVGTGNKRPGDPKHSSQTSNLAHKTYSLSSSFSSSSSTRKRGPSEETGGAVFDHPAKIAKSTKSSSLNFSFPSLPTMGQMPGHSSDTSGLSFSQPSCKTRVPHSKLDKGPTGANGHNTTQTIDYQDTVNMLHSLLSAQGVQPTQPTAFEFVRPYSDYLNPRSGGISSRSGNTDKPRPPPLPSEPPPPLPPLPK
protocol_notes: Cdk9/CyclinT1 IMAP Protocol (fluorescence polarization kinase assay)
condition_notes: Table 2; generated using one of the two Cdk9/cyclinT1 assays (IMAP or Alpha Screen), not specified which; unit inferred
pIC50: −log10 of the molar value.
Label yes (1) when pIC50 >= 8; otherwise no (0).

{"columns": ["molecule", "classification"],
 "data": [
  ["Fc1cccc(CNc2cccc(-c3cc(NCCC4CCOCC4)ncc3Cl)n2)c1 [Compound 174]", "no (0)"]
]}

Test whether the molecule CN1CCC(CNc2cc(-c3cncc(NCC4CCOCC4)n3)c(Cl)cn2)CC1 [Compound 209] records pIC50 of 8 or higher. no (0)

Test whether the molecule Cc1ccc(CNc2cccc(-c3cc(N[C@H]4CC[C@H](N)CC4)ncc3Cl)n2)cc1 [Compound 51] records pIC50 of 8 or higher. no (0)

Test whether the molecule O[C@H]1CC[C@H](Nc2cc(-c3cccc(NCC4CCCOC4)n3)c(Cl)cn2)CC1 (some centres unmarked) [Compound 128] records pIC50 of 8 or higher. no (0)

Test whether the molecule NCCCNc1cccc(-c2cc(N[C@H]3CC[C@H](O)CC3)ncc2Cl)n1 [Compound 118] records pIC50 of 8 or higher. no (0)

Test whether the molecule Clc1cnc(N[C@H]2CCCNC2)cc1-c1cccc(NCC2CCCCC2)n1 [Compound 95] records pIC50 of 8 or higher. no (0)

Test whether the molecule Nc1cc(-c2cccc(NCc3cccc(F)c3)n2)c(Cl)cn1 [Compound 179] records pIC50 of 8 or higher. no (0)

Test whether the molecule COC[C@@H](C)N[C@H]1CC[C@H](Nc2cc(-c3cccc(NCC4(C)CCS(=O)(=O)CC4)n3)c(Cl)cn2)CC1 [Compound 365] records pIC50 of 8 or higher. yes (1)

Test whether the molecule COCCN[C@H]1CC[C@H](Nc2cc(-c3nc(NCC4CCOCC4)ccc3Cl)ccn2)CC1 [Compound 274] records pIC50 of 8 or higher. no (0)
